# credit: the nanobody polyreactivity screen of Harvey et al. (2022)

Experiment: yeast display, Sf9 membrane polyspecificity reagent, FACS + sequencing; frameworks hold sequencing errors
Measured metric: polyreactivity (PSR sort gate)

[[record]]
polymer_sequence = "QVQLVESGGGLVQAGGSLRLSCAASGSIFSPYAMGWYRQAPGKERELVAAISWTGGRTYYADSVKGRFTISRDNAKNTVYLQMNSLKPEDTAVYYGAAAYYGTRPYGYWGQGTQVTVSS"
measured_metric = "polyreactivity (PSR sort gate)"
readout_value = "high polyreactivity"

[[record]]
polymer_sequence = "QVQLVESGGGLVQAGGSLRLSCAASGSISVHYAMGWYRQAPGKERELVAAISRRGGSTYYADSVKGRFTISRDNAMNTVYLQMNSLKPEDTAVYYCNASYYSVIQQTWYDYWGQVTQVTVSS"
measured_metric = "polyreactivity (PSR sort gate)"
readout_value = "high polyreactivity"

[[record]]
polymer_sequence = "QVQLVESGGGLVQAGGSLRLSCAASGFIIYKYAMGWYRQAPGKERELVAAISWSGGSTYYADSVKGRFTISRDNAKNTVYFQMNSLKPEDTAVYYCAARQWSQGWYDYWGQGTQVTVSS"
measured_metric = "polyreactivity (PSR sort gate)"
readout_value = "high polyreactivity"

[[record]]
polymer_sequence = "QVQLVESGGGLVQAGGSLRLSCAASGRTFYLYTMGWYIQAPGKERELVAAISRGGRTYADSVKGRFTISRDNAKNTVYLQMNSLKPEDTAVYYCAAESVYHGWSYQHGKGDYWGQGTQVTVSS"
measured_metric = "polyreactivity (PSR sort gate)"
readout_value = "low polyreactivity"

[[record]]
polymer_sequence = "QVQLVESCGDLVQAGASLRLSCAASGRIFVYYAMGWYRQAPGKERELVALITSLGSTNYSDSVKGRFTISRDNGKNCVYLQMNSLKPEDTAVYYCAAEWEYYGFDYWGQGTQVTVSS"
measured_metric = "polyreactivity (PSR sort gate)"
readout_value = "low polyreactivity"


(Q) Reported polyreactivity (PSR sort gate) for `QVQLVESGGGLVQAGGSLRLSCAASGSIFYGYVMGWYRQARGKERELVAAITRSGSTYYADSVKGRFTISRDNAKNTVYLQMNSLKPEDTAVYYCAAAAKRKYYWGQGNQVTVSS` : what is it?
(A) high polyreactivity

(Q) Okay, and `QVQLVESGGGLVQAGGSLRLSCAASGSIFLYNAMGWYRQAPGKERELVAAISRSSTSTYYSDSVKGRFTISRDNAKNTVYLQMNSLKPEDTAVYYCAARGRVTYWGQGTQVTVSS` ?
(A) high polyreactivity

(Q) Okay, and `QVQLVESGGGLVQAGGSLRLSCAASGNIFTNNAMGWYRQAPGKEREFVAAITRSGGSTSYADSVKGRFTISRDNAKNTVYLQMISLNPEDTAVYYCAATGYRYRRIYGFDYWGQGTQVTVSS` ?
(A) high polyreactivity

(Q) Okay, and `QVQLVESGGGLVQAGGSLRLSCAASGYTFVYNALGWYRQAPGKEREFVAAITWSGTSTRYADSVKGRFTISRDNAKNTVYIQMTSLQPEDTAVYYCAARRRSAQSGSYNHWGQGTQVTVSS` ?
(A) high polyreactivity

(Q) Okay, and `QVQLVESGGGLVQAGGSLRLSCAASGSTFWINAMGWYRQAPGKERELVADISHSAGNTYYADSVKGRFTISRDNAKNTVYLQMNSLKPEDTAVYYCAARRWGVRSGDYYWGQGTQVTVSS` ?
(A) low polyreactivity

(Q) Okay, and `QVQLVESGGGLVQAGGSLRLSCAASGFTFDHNAMGWYRQAPGKERELVARITGTGDSTYYADSVKGRFTISRDNAKKTVYLQMNSLNPEDSADYYCNADRRYDFYDGYGYWGQGTQVTVSS` ?
(A) low polyreactivity

(Q) Okay, and `QVQLVESGGGLVQAGGSLRLSCAASGRTFWLYAMGWYRQATGKERELVAGISRGGRTYYADSVKGRFTISRDNAKNTVYLQMNSLKPEDTAVYYGAADRYTVRMDCWGQGTQVTVSS` ?
(A) high polyreactivity

(Q) Okay, and `QVQLVESGGGLVKAGGSLRLSCAASGRTFQVYDMGWYRQAPGKERELVAGITRAGSTYYADSVKGRFTISRDNAKNSVYLQMNRLKPEDSAVYYCAASRWHGYNYWGQGTQVTVSS` ?
(A) high polyreactivity

(Q) Okay, and `QVQLVESGGGLVQAGGSLRLSCAASGSIFDAYAMGWYRPATGKERELVAAITYSGGSTYYADSVKGRFTISRDNAKNTVYLQMNSLKPEDTAVYYCNTDSRVRTWFRAFTYDSWGQGTQVTVSS` ?
(A) low polyreactivity

(Q) Okay, and `QVQLVESGGGLVQAGGSLRLSCDASGNIFSDYTMGWYRQAPGKERELVAAISGDGGTTYYADSVKGRFTISRDNAKNTVYLQMNSLNPEDTAVYYCAADGYYDAYDQFFIVYYEYDYWGQGTQVTVSS` ?
(A) low polyreactivity

(Q) Okay, and `QVQLVESGGGLVQAGGSLRLSCAASGSTFYYYVMGWYRQAPGKERELVAVISKSGGSTRYADSVKGRFTISRDNAKNTVYLQMNSLKPEDTAVYYCAADGLRLVPGYKYDYWGQGTQVTVSS` ?
(A) high polyreactivity

(Q) Okay, and `HVQLVESGGGLVQAGGSLRLSCDASGRTFYRYVIGWYRQAPGKERELVAAISKSDGSSYYADSVKGRFTISRDNAKNTVYLQMNSLKPEDTAVYYCAAQYPTFYSPRPFNYWGQGTQVTVSS` ?
(A) high polyreactivity

(Q) Okay, and `QVQLVESGGGLVQAGGSLRLSCAASGSIFGYYGMGCYIQAPGKERELVAAISARGGSTYYADSVKGRFTISRDNAKNTVYFQMNRLKPEDTAVYYCAVRYPGSRYLISKNGYWGQGTQVTVSS` ?
(A) high polyreactivity

(Q) Okay, and `QVQLVESGGGLVQAGGSLRLSCAASGSIFGGYGMGWYRQAPGKERQLVAAITSGSSTYYADSVKGRFTISRDNAKNTVYLQMNSLKPEDTAVYYCAARPYPHSAYQGDYWGRGTQVTVSS` ?
(A) low polyreactivity

(Q) Okay, and `QVQLVESGGGLVQAGGSLRLSCAASGRTFRFNAMGWYRQAPGKEMELVAAISSGGRTYYADSVKGRFTISRDNAKNTVYLQMNSLKPEDTAVYYCAARVFVRHPHQVAYDYWGQGTQVTVSS` ?
(A) high polyreactivity

(Q) Okay, and `QVQLVESGGGLVQAGGSLRLSCAASGFTFDLYARGWYRQAPGKERELVAAISSSCGSTYYADSVKGRFTISRDNAKNTVYLQMNSLKPEDTAVYDCARRYLYSSRLVTKYGYGMDYWGQGTQVTVSS` ?
(A) high polyreactivity
